All figures here come from PubChem BioAssay (NCI).

System: HCC-2998 colon
Test: NCI-60 one-dose screen, 48 h
Conditions: 10 µM
The panel holds about 83,000 compounds, 20% with a hit somewhere; the sample as a whole holds those more often. Active and inactive are the calls of the source. How the source made its calls: active means growth percent below 10; inactive means the rest.
Respond only with the outcome that fits, drawn from Y for active, N for inactive

Challenge: Please share the test call associated with `N#Cc1c(-c2ccc(F)cc2)nc(SCc2ccc(F)cc2)nc1N1CCOCC1` .
Response given: N

Challenge: Please share the test call associated with `Cn1cc(/C=N/Nc2cccc(Cl)n2)c2ccccc21` .
Response given: N

Challenge: Please share the test call associated with `COc1ccc(CN2[C@H](C(=O)NCc3ccc(C(=O)NO)cc3)Cc3c([nH]c4ccccc34)[C@H]2C2CC2)cc1` .
Response given: N

Challenge: Please share the test call associated with `O=C(CSc1nnc(-c2ccc3nc(-c4ccccc4)[nH]c3c2)o1)Nc1ccc(Br)cc1` .
Response given: N

Challenge: Please share the test call associated with `COC1=C[C@]23CCC(=O)N2CCc2cc4c(cc2[C@@H]3[C@@H]1OC(=O)CCCC(C)C)OCO4` .
Response given: N

Challenge: Please share the test call associated with OCc1[nH]nc2cc(Nc3ncc4ccc(Br)c(OC5CCC(O)CC5)c4n3)ccc12 (stereo not drawn) .
Response given: Y

Challenge: Please share the test call associated with `S=c1nc(-c2ccccc2)cc(-c2cc3ccccc3nc2Cl)[nH]1` .
Response given: N

Challenge: Please share the test call associated with CC1CC(c2ccc(N(C)C)cc2)=NN1c1nc(O)c(C2=c3cc(Br)ccc3=NC2=O)s1 (stereo not drawn) .
Response given: N

Challenge: Please share the test call associated with `O=C(Nc1ccc(Cl)c(C(F)(F)F)c1)c1cncc(C#Cc2cnc3ccc(N4CCOCC4)nn23)c1` .
Response given: Y

Challenge: Please share the test call associated with `COc1ccc(-c2cc(-c3cc(C(=O)c4ccc(Br)cc4)n4ccc(C)cc34)nc(N)c2C#N)cc1` .
Response given: N

Challenge: Please share the test call associated with `COc1ccc(/C=C/C(=O)c2ccc(N3CCN(C)CC3)cc2)c(C(F)(F)F)c1` .
Response given: Y

Challenge: Please share the test call associated with `COc1cc(/C=C/C(=O)c2ccc(C(F)(F)F)cc2)ccc1Oc1nc(Nc2ccc(F)cc2)nc(N(C)C)n1` .
Response given: N

Challenge: Please share the test call associated with `O=C(NO)c1ccc(Cn2ccc3c(NCc4ccccc4)ncnc32)cc1` .
Response given: Y

Challenge: Please share the test call associated with `O=C(Nc1ccc(OCC(=O)c2ccccc2)cc1)Nc1ccc(Cl)c(C(F)(F)F)c1` .
Response given: N

Challenge: Please share the test call associated with `Cc1noc2c(Cc3ccccc3)nn(CC(=O)N/N=C/c3ccc(F)cc3)c(=O)c12` .
Response given: N

Challenge: Please share the test call associated with `O=C1Nc2ccc(Cl)cc2/C1=C/c1cccc(OCc2ccccc2)c1` .
Response given: N

Challenge: Please share the test call associated with `NC(=Nc1ccc(OCCCCCCCCn2ccnn2)cc1)c1ccccc1` .
Response given: N

Challenge: Please share the test call associated with `CS(=O)(=O)Nc1ccc(-c2ccc3c(c2)ncn3-c2ccc(NC(=O)Nc3ccc(Cl)c(C(F)(F)F)c3)cc2)cc1` .
Response given: Y

Challenge: Please share the test call associated with `Cc1ccc(/C=C/C(=O)c2ccc(S(=O)(=O)NCCNc3nc(Nc4ccc(F)cc4)nc(N(C)C)n3)cc2)cc1` .
Response given: Y

Challenge: Please share the test call associated with `Cc1ccc(CSc2nc(Cl)c(C#N)c(-c3ccc(F)cc3)n2)cc1` .
Response given: N

Challenge: Please share the test call associated with `Cc1ccc([N+](=O)[O-])c(C(=O)Nc2ccc(-c3ccc4c(c3)NC(=O)/C4=C\c3ccc[nH]3)cc2)c1` .
Response given: N

Challenge: Please share the test call associated with `CCOC(=O)c1c(CSc2ccccc2)n(C)c2cc(CN(C)C)c(O)c(CN(C)C)c12` .
Response given: N
